# IC50 per record follows
# target under test: IL-17A/A (Homo sapiens)
# Sequence (Q16552 24-155): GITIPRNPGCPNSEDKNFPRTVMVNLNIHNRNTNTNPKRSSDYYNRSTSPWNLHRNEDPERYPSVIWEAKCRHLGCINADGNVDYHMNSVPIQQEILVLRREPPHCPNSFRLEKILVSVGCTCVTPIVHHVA
# assay comment: IL-17A/A HEK-Blue cell assay (SEAP reporter)
# condition context: HEK-Blue IL-17A reporter cells, IL17A/A 5 ng/mL, 20 hours, SEAP read at A630; read-out: HEK-Blue IL17AA (IC50 for IL-17A/A inhibition)
# Description: The HEK-Blue IL-17A reporter cell line (Fisher #NC 1408637) was used for cell-based IL-17A/A inhibition assays. Cells were grown and prepared for assays according to the manufacturer's instructions. […] Media from the cells is then added to a development reagent (Quanti-Blue Substrate, Fisher #NC971 1613), and read at A630. […]
reported metric: IC50

| compound | readout value |
| --- | --- |
| CC(C)(C)n1nccc1C(=O)N[C@H](c1cn2nc(C[C@H]3C[C@@H](C(F)(F)F)CNC3=O)c(C3CCOCC3)nc2n1)C1CCC(F)(F)CC1 | < 100 nM |
| CCn1nccc1C(=O)N[C@H](c1cn2nc(C[C@H]3C[C@@H](C(F)(F)F)CNC3=O)cnc2n1)C(C1CC1)C1CC1 | < 100 nM |
| CCn1nccc1C(=O)N[C@H](c1cn2nc(C[C@H]3C[C@@H](C(F)(F)F)CNC3=O)c(N3CCN(C)[C@@H](C)C3)nc2n1)C1CCC(F)(F)CC1 | < 100 nM |
| O=C(N[C@H](c1cn2nc(C[C@H]3C[C@@H](C(F)(F)F)CNC3=O)c(C3CCOCC3)nc2n1)C1CCC(F)(F)CC1)c1ccnn1CCN1CCCC1C(F)(F)F (some centres unmarked) | < 100 nM |
| CCn1nccc1C(=O)N[C@H](c1cn2nc(C[C@H]3C[C@@H](C(F)(F)F)CNC3=O)c(C3CCN(C)C3)nc2n1)C1CCC(F)(F)CC1 (single isomer, unassigned) [Compound 439] | 100 to 1000 nM |
